Would you kindly list drug sensitivity score for each of these compounds?
test system: FM-MEL-6; assay: drug sensitivity score (DSS) (DSS (unitless, 0-50 scale)); higher = more sensitive (stronger viability inhibition); extreme values may be limits of the assay; conditions: 72 h; culture: 2D
Numbers only.

Recorded drug sensitivity score, per entry:
Chemical string	Tested on	Readout kind	Reported
CN(C)C/C=C/C(=O)Nc1cc2c(Nc3ccc(F)c(Cl)c3)ncnc2cc1O[C@H]1CCOC1	FM-MEL-6	drug sensitivity score	0.3
CC(C)(C)c1cc(NC(=O)Nc2ccc(-c3cn4c(n3)sc3cc(OCCN5CCOCC5)ccc34)cc2)no1	FM-MEL-6	drug sensitivity score	0
C=CC(=O)N1CC/C(=C\c2ccc(F)c([N+](=O)[O-])c2)C(=O)/C(=C/c2ccc(F)c([N+](=O)[O-])c2)C1	FM-MEL-6	drug sensitivity score	2.4
CS(=O)(=O)CCNCc1ccc(-c2ccc3ncnc(Nc4ccc(OCc5cccc(F)c5)c(Cl)c4)c3c2)o1	FM-MEL-6	drug sensitivity score	0.1
CC1(COc2ccc3c(c2)ncn3-c2ccc3cccc(N4CCC(N)CC4)c3n2)COC1	FM-MEL-6	drug sensitivity score	5.4

Please give drug sensitivity score, item by item, for the list that follows.
1. C[C@@H](C(=O)O)c1ccc(-c2ccccc2)c(F)c1
2. C[C@@H]1C=C2C(=O)O[C@@H]3CC[C@H](C1)[C@]23O
3. COc1cc2nccc(Oc3ccc(NC(=O)NC4CC4)c(Cl)c3)c2cc1C(N)=O
4. CNC(=O)c1ccccc1Nc1cc(Nc2ccc(N3CCOCC3)cc2OC)ncc1C(F)(F)F

[0, 0.7, 0, 7.2]

Give recorded drug sensitivity score. "CN1C(=O)N[C@H](Cc2c[nH]c3c(Cl)cccc23)C1=O"
0
